FYI, the data here is from paper PMC8188212.

biological target: DR6 protein (Homo sapiens, UniProt O75509); construct: purchased Sino Biology, Inc. (Shanghai, China); assay: KD of DR6-targeting peptides for binding to DR6 protein by MST; details: Tables S1 and S2, average of three independent experiments in triplicate, NB = No binding, read-out: KD ± SEM
Square brackets hold non-standard residues; d marks the D form. Peptide text beside a SMILES is read from it.
measuredProperty: Kd (µM)
Express it in µM; write the number only.

Solved entries:
INPUT: Find the recorded Kd belonging to C[C@H](O)[C@@H](NC(=O)[C@@H](CC(=O)O)NC(=O)[C@H](NC(=O)[C@@H](CC(N)=O)NC(=O)[C@H](N)CCC(N)=O)[C@H](C)O)C(=O)N[C@H](Cc1c[nH]cn1)C(=O)N[C@H](CO)C(=O)O [AHP-DRI-13] (H-[dQ][dN][dT][dD][dT][dH][dS]-OH) and report it.
OUTPUT: 0.863

INPUT: Param item = C[C@H](O)[C@@H](NC(=O)[C@@H](CC(=O)O)NC(=O)[C@H](NC(=O)[C@@H](Cc1c[nH]cn1)NC(=O)[C@H](N)CO)[C@H](C)O)C(=O)N[C@H](CC(N)=O)C(=O)N[C@H](CCC(N)=O)C(=O)O [AHP-D-13] (H-[dS][dH][dT][dD][dT][dN][dQ]-OH) ; retrieve measured Kd.
OUTPUT: 3.17

INPUT: Fill in the blank: the reported Kd of CC(C)C[C@@H](NC(=O)[C@H]1CCCN1C(=O)[C@@H](C)NC(=O)[C@H]1CCCN1C(=O)[C@@H](CC(C)C)NC(=O)[C@H](N)Cc1ccc(O)cc1)C(=O)N1CCC[C@@H]1C(=O)O [AHP-D-03] (H-[dY][dL][dP][dA][dP][dL][dP]-OH) is ____.
OUTPUT: 4.73

INPUT: Recorded Kd of CC[C@@H](C)[C@@H](NC(=O)[C@H](N)[C@H](C)O)C(=O)N[C@H](CC(=O)O)C(=O)N[C@H](C)C(=O)N[C@@H](C(=O)N[C@@H](C(=O)N1CCC[C@@H]1C(=O)O)[C@H](C)O)[C@H](C)O [AHP-D-12] (H-[dT][dI][dD][dA][dT][dT][dP]-OH) , please.
OUTPUT: 55.1

Further cases:
INPUT: # input compound: CC(C)C[C@@H](NC(=O)[C@H]1CCCN1C(=O)[C@@H](C)NC(=O)[C@H]1CCCN1C(=O)[C@@H](CC(C)C)NC(=O)[C@H]1CCCN1)C(=O)N[C@H](Cc1ccc(O)cc1)C(=O)O [AHP-DRI-03] (H-[dP][dL][dP][dA][dP][dL][dY]-OH) ; wanted: its Kd
OUTPUT: 1.22
